- TARGET OF ASSAY: human V1a receptor (Homo sapiens)
- Sequence (P37288 whole entry): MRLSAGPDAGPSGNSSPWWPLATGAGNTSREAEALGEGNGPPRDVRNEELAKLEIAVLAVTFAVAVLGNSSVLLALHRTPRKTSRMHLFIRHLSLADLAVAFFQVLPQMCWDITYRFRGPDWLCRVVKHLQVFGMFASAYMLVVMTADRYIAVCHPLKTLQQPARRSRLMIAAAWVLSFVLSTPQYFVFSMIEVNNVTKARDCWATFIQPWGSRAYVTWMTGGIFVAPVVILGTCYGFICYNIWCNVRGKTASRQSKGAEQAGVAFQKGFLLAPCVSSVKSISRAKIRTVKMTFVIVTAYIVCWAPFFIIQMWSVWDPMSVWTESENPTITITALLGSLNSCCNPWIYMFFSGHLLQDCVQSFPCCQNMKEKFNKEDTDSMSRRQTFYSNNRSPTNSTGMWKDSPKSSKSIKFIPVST
- ASSAY DETAILS: Cellular in vitro assay for vasopressin receptor activity, V1a cell line (aequorin luminescence)
- ASSAY CONDITIONS: CHO cell line transfected with human V1a receptor; agonist [Arg8]-vasopressin at EC50 concentration; read-out: IC50hV1a
# reported IC50; entries follow
Field: numeric (nM). Do not append units.

Example compounds with recorded IC50:
1. CC(F)c1nc(Cn2nc(-c3ccc(Cl)cc3)n(C[C@H](O)C(F)(F)F)c2=O)nn1-c1ncccc1Cl (single isomer, unassigned) [Example 20] = 1.35
2. CC(F)c1nc(Cn2nc(-c3ccc(Cl)cc3)n(C[C@H](O)C(F)(F)F)c2=O)nn1-c1cnccc1C(F)(F)F (stereo partly drawn) [Example 7] = 1.13
3. CC(F)(F)c1nc(Cn2nc(-c3ccc(Cl)cc3)n(C[C@H](O)C(F)(F)F)c2=O)nn1-c1ccccc1Cl = 0.4
4. CC(F)c1nc(Cn2nc(-c3ccc(Cl)cc3)n(C[C@H](O)C(F)(F)F)c2=O)nn1-c1ccccc1OC(F)F (single isomer, unassigned) [Example 33] = 2.15
5. CC(F)c1nc(Cn2nc(-c3ccc(Cl)cc3)n(C[C@H](O)C(F)(F)F)c2=O)nn1-c1ccccc1C(F)(F)F (mixture of isomers) [Example 22] = 3.9

Now turn to the next compound.
Consider the compound CC(F)c1nc(Cn2nc(-c3ccc(Cl)cc3)n(C[C@H](O)C(F)(F)F)c2=O)nn1-c1cnccc1C(F)(F)F (single isomer, unassigned) [Example 8] and give its recorded IC50.
1.25
